Exercise: for every item that follows, state its recorded Km.
target: AprACP, ACP of the apratoxin (PK/NRP) gene cluster in Lyngbya sp.

Reported Km ( MPPT, Sfp-like phosphopantetheinyl transferase (PPTase) from Microcystis aeruginosa NIES843 (protein) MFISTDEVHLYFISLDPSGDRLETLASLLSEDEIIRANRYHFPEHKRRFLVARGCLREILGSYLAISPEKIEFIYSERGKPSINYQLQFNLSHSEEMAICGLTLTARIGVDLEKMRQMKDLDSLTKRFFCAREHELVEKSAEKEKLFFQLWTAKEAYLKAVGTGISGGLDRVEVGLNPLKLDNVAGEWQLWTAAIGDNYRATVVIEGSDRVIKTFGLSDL ) = 9.1 µM

Sure, the documented Km for SPPT, Sfp-like phosphopantetheinyl transferase (PPTase) from Synechocystis sp. PCC6803 (protein) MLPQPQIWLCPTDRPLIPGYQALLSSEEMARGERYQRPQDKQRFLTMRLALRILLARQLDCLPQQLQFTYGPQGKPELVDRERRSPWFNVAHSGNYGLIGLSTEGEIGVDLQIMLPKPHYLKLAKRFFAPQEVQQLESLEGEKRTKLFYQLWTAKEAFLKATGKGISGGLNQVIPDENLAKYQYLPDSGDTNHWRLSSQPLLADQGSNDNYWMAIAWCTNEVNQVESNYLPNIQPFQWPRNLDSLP is 12.9 µM

Please fill in: Km reported for APPT, Sfp-like phosphopantetheinyl transferase (PPTase) from Anabaena sp. PCC7120 (protein) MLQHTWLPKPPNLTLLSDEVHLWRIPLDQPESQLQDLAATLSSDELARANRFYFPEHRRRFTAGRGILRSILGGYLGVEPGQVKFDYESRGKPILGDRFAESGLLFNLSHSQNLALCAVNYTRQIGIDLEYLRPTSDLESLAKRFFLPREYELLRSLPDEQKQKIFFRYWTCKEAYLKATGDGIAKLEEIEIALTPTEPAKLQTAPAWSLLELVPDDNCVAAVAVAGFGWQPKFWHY = 7.8 µM

Entry Sfp, phosphopantetheinyl transferase from Bacillus subtilis (protein) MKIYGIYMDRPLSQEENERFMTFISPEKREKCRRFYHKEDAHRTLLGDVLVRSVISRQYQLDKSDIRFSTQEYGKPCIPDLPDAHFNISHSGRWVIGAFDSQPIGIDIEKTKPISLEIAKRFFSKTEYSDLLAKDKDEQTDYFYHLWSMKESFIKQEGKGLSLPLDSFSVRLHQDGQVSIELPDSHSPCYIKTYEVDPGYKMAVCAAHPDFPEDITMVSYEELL , Km reported as 9 µM

// provenance: patent US20210087522
